Experimental Parameters: in n-propanol, 303.15 K
Readout Label: solubility (mole fraction)
Answer with a number only.

Quick check: solubility (mole fraction) of COc1cccc(C=O)c1O ? 0.554

* * *

Experimental Parameters: in ethanol, 283.15 K
Readout Label: solubility (mole fraction)
Give the value as a plain number.

Query (compound): COc1cccc(C=O)c1O ; field requested: solubility (mole fraction) 0.0774

* * *

Experimental Parameters: in n-propanol, 278.15 K
Readout Label: solubility (mole fraction)
Hey, just send me the number, nothing else.

Quick one: solubility (mole fraction) for COc1cccc(C=O)c1O ? 0.0388

* * *

Experimental Parameters: in n-propanol, 283.15 K
Readout Label: solubility (mole fraction)

So what does the record say about solubility (mole fraction) for COc1cccc(C=O)c1O ? 0.0552
